All figures here come from patent US11931424B2.

System: panel of breast cancer cell lines
Assay: Compound A with targeted agents and chemotherapies, 72-hour in vitro proliferation assays
Format: cell-based
Conditions: KPL-1; compound A × partner, 72-hour proliferation
attributeMeasured: Bliss Volume

>  <compound>
N.N.[Cl][Pt][Cl] [Cisplatin]

>  <testResult>
−0.41

$$$$
>  <compound>
C[C@]12CC[C@@H]3c4ccc(O)cc4C[C@@H](CCCCCCCCC[S+]([O-])CCCC(F)(F)C(F)(F)F)[C@H]3[C@@H]1CC[C@@H]2O (stereo partly drawn)

>  <testResult>
0.30

$$$$
>  <compound>
CCN1CCN(Cc2ccc(Nc3ncc(F)c(-c4cc(F)c5nc(C)n(C(C)C)c5c4)n3)nc2)CC1

>  <testResult>
−3.02

$$$$
>  <compound>
CC(=O)O[C@@]12CO[C@@H]1C[C@H](O)[C@@]1(C)C(=O)[C@H](O)C3=C(C)[C@@H](OC(=O)[C@H](O)[C@@H](NC(=O)OC(C)(C)C)c4ccccc4)C[C@@](O)([C@@H](OC(=O)c4ccccc4)[C@H]21)C3(C)C

>  <testResult>
5.18

$$$$
>  <compound>
N.N.O=C([O-])C1(C(=O)[O-])CCC1.[Pt+2]

>  <testResult>
0.04

$$$$
>  <compound>
CO[C@H]1C[C@@H]2CC[C@@H](C)[C@@](O)(O2)C(=O)C(=O)N2CCCC[C@H]2C(=O)O[C@H]([C@H](C)C[C@@H]2CC[C@@H](OCCO)[C@H](OC)C2)CC(=O)[C@H](C)/C=C(\C)[C@@H](O)[C@@H](OC)C(=O)[C@H](C)C[C@H](C)/C=C/C=C/C=C/1C

>  <testResult>
2.85

$$$$

====

Each item that follows carries a reported Bliss Volume.
Test system: panel of breast cancer cell lines
Assay: Compound A with targeted agents and chemotherapies, 72-hour in vitro proliferation assays
Format: cell-based
Conditions: HCC70; compound A × partner, 72-hour proliferation

>  <compound>
O=C(c1cc(Cc2n[nH]c(=O)c3ccccc23)ccc1F)N1CCN(C(=O)C2CC2)CC1

>  <systemUnderTest>
panel of breast cancer cell lines

>  <Bliss Volume>
6.93

$$$$
>  <compound>
N.N.[Cl][Pt][Cl] [Cisplatin]

>  <systemUnderTest>
panel of breast cancer cell lines

>  <Bliss Volume>
18.00

$$$$
>  <compound>
CCN1CCN(Cc2ccc(Nc3ncc(F)c(-c4cc(F)c5nc(C)n(C(C)C)c5c4)n3)nc2)CC1

>  <systemUnderTest>
panel of breast cancer cell lines

>  <Bliss Volume>
10.18

$$$$
>  <compound>
CC(=O)c1c(C)c2cnc(Nc3ccc(N4CCNCC4)cn3)nc2n(C2CCCC2)c1=O

>  <systemUnderTest>
panel of breast cancer cell lines

>  <Bliss Volume>
4.80

$$$$
>  <compound>
CCOc1cc2ncc(C#N)c(Nc3ccc(OCc4ccccn4)c(Cl)c3)c2cc1NC(=O)/C=C/CN(C)C

>  <systemUnderTest>
panel of breast cancer cell lines

>  <Bliss Volume>
36.07

$$$$
>  <compound>
CC(=O)O[C@@]12CO[C@@H]1C[C@H](O)[C@@]1(C)C(=O)[C@H](O)C3=C(C)[C@@H](OC(=O)[C@H](O)[C@@H](NC(=O)OC(C)(C)C)c4ccccc4)C[C@@](O)([C@@H](OC(=O)c4ccccc4)[C@H]21)C3(C)C

>  <systemUnderTest>
panel of breast cancer cell lines

>  <Bliss Volume>
25.33

$$$$
>  <compound>
CC1(C)CCC(CN2CCN(c3ccc(C(=O)NS(=O)(=O)c4ccc(NCC5CCOCC5)c([N+](=O)[O-])c4)c(Oc4cnc5[nH]ccc5c4)c3)CC2)=C(c2ccc(Cl)cc2)C1

>  <systemUnderTest>
panel of breast cancer cell lines

>  <Bliss Volume>
15.68

$$$$
